Every entry's value here was drawn from PubChem BioAssay (NCI).

Test system: SR leukemia
Test: NCI tumour cell line growth inhibition, 48 h
Where a SMILES comes first, the peptide text is derived from it. [ ]: non-standard residue; d: D form. The star is where a group is joined. hSer = N[CH](CCO)C(=O)O; Boc = CC(C)(C)OC(=O)*
Readout kind: TGI

Form: molecule = Oc1ccc(-c2cc(-c3c(O)cc(O)cc3O)on2)cc1 ; TGI = > 100 µM

Form: molecule = c1cnc2c(c1)-n1cccc1C1(CCOCC1)NN2 ; TGI = > 100 µM

Form: molecule = O=[N+]([O-])/C(C(Cl)=C(Cl)Cl)=C1\Nc2ccccc2O1 ; TGI = 63.7 µM

Form: molecule = COCCC(NC(=O)C(CC(C)C)NC(=O)OC(C)(C)C)C(N)=O (stereo not drawn) (Boc-Leu-[hSer](Me)-NH2; configuration not given here) ; TGI = > 100 µM

Form: molecule = O=C(C=P(c1ccccc1)(c1ccccc1)c1ccccc1)C12CC3CC(CC(C3)C1)C2 ; TGI = > 100 µM

----------
Tested on: SF-539 CNS
Test: NCI tumour cell line growth inhibition, 48 h
As shown below, each of these compounds has a reported GI50 value.

The cases that follow already have their GI50 on record.
>  <Compound>
COCCNCC(O)Cn1c2ccc(Cl)cc2c2cc(Cl)ccc21 (stereo unspecified)

>  <Value observed>
1.8 µM

$$$$
>  <Compound>
COc1ccc(-c2nc(-c3nc4ccc(F)cc4[nH]3)cc3c2[nH]c2ccccc23)cc1

>  <Value observed>
2.8 µM

$$$$
>  <Compound>
C=C1C(=O)O[C@H]2[C@H]1CC/C(COC(=O)OCCCCCOC(=O)OC/C1=C/CC[C@@]3(C)O[C@H]3[C@H]3OC(=O)C(=C)[C@@H]3CC1)=C\CC[C@@]1(C)O[C@@H]21

>  <Value observed>
0.61 µM

$$$$
>  <Compound>
O=C(Cn1ccnc1[N+](=O)[O-])N(CCO)CCO

>  <Value observed>
> 1250 µM

$$$$

Form: compound = C=C1CC2CC[C@@]34C[C@@H]5O[C@@H]6C(O[C@H]7CC[C@H](CC(=O)OC8[C@@H](C)C9OC%10C[C@]%11(C[C@@H]%12O[C@@]%13(C[C@@H](C)[C@@H]%12O%11)C[C@H](C)[C@@H]%11OC%12CC(C(O)CO)OC%12C[C@@H]%11O%13)OC%10CC9O[C@H]8C[C@H]8O[C@@H](CC[C@@H]1O2)C[C@@H](C)C8=C)O[C@@H]7[C@@H]6O3)C5O4 (stereo partly specified) ; GI50 = < 0.000148 µM

Form: compound = FC(F)(F)c1cc(Nc2ccc3c(OCCCN4CCOCC4)cccc3n2)ccc1Cl ; GI50 = 1.9 µM

----------
Tested on: SK-MEL-28 melanoma
Test: NCI tumour cell line growth inhibition, 48 h
As shown below, each of these compounds has a reported GI50 value.

The cases that follow already have their GI50 on record.
>  <Compound>
CCCOC(=O)N[C@H]1CCc2c(Br)c(OC)c(OC)c(OC)c2-c2ccc(SC)c(=O)cc21

>  <GI50>
2.83 µM

$$$$
>  <Compound>
COc1ccc(-c2nc(-c3nc4ccc(F)cc4[nH]3)cc3c2[nH]c2ccccc23)cc1

>  <GI50>
3.4 µM

$$$$
>  <Compound>
Cc1nc2sc(C(=O)Nc3cccc4ccccc34)c(N)c2cc1C(C)O (centres undefined)

>  <GI50>
0.882 µM

$$$$
>  <Compound>
COc1ccc2c(c1)O/C(=C\c1cccc(OCC(=O)Nc3nc4ccccc4s3)c1)C2=O

>  <GI50>
> 72 µM

$$$$
>  <Compound>
c1ccc2c(c1)O[As](O[As]1Oc3ccccc3O1)O2

>  <GI50>
3.04 µM

$$$$

Form: compound = O=C1C(=O)c2ccc(Br)cc2-c2cc(Br)ccc21 ; GI50 = 5.52 µM

Form: compound = O=C(NCc1cn(Cc2cccc(Oc3ccccc3)c2)nn1)c1cccnc1Nc1ccccc1 ; GI50 = 4.93 µM

Form: compound = O=C(c1ccccc1)c1ccc(-c2ccc(O)cc2)cc1 ; GI50 = 10.4 µM

Form: compound = Brc1c[n+](Cc2ccc3ccccc3c2)cn1Cc1ccc2ccccc2c1 ; GI50 = 1.55 µM

Form: compound = CS(=O)(=O)c1nccc(-c2c(-c3cccc(OCc4ccc(F)cc4)c3)nc3sccn23)n1 ; GI50 = 23.8 µM

Form: compound = COC1=CC(c2ccc[nH]2)=N/C1=C\c1[nH]c(C)c(C(=O)CCC(=O)Oc2ccc3c(c2)CCC2C3CC[C@]3(C)C(=O)CC[C@@H]23)c1C (some centres undefined) ; GI50 = > 70.9 µM

Form: compound = COc1cc(-c2c3c(cn2S(=O)(=O)c2ccccc2)-c2nc(N)sc2CC3)cc(OC)c1OC ; GI50 = 1.12 µM

Form: compound = O=C1c2ccn(CCCCN3CCOCC3)c2C(=O)c2c1c(O)c1ccccc1c2O ; GI50 = 25.8 µM

Form: compound = COC[C@H]1C(=O)NCC(=O)N2NCCC[C@H]2C(=O)N(O)[C@H](C)C(=O)O[C@@H](C(C)C)[C@H](NC(=O)[C@](C)(O)[C@]2(O)CC[C@@H](CC(C)C)[C@H](C)O2)C(=O)N2NCCC[C@@H]2C(=O)N1O ; GI50 = < 0.01 µM
